Here, each record is paired with measured CC50 at 72 h data.
Experiment: General cytotoxicity on HepG2 cells
Type: cell-based
Details: human; general cytotoxicity, HepG2 cells, 72 hours, average of several tests
VALUE_TYPE: CC50 at 72 h (µM)

>>> observed_value("C=CC(=O)Nc1cc(Nc2cc(C(=O)c3ccc(OCCC)cc3)ccn2)c(OC)cc1N(C)CCN(C)C")
12.4
>>> observed_value("C=CC(=O)Nc1cc(Nc2cc(C(=O)c3ccc(OCCOC)cc3)ccn2)c(OC)cc1N(C)CCN(C)C")
23.6
>>> observed_value("C=CC(=O)Nc1cc(Nc2nccc(C(=O)c3ccc(N4CCC[C@H](O)C4)cc3)n2)c(OC)cc1N(C)CCN(C)C")
47.9
>>> observed_value("C=CC(=O)Nc1cc(Nc2nccc(C(=O)c3ccc(N4CC(OC)C4)cc3)n2)c(OC)cc1N(C)CCN(C)C")
43

###

Biological target: DM EGFR (DoubleMutantEGFR, L828R/T790M) (Homo sapiens, UniProt P00533, L858R/T790M)
Experiment: Inhibition of DM EGFR kinase activity (ADP-Glo)
Conditions: inhibition of kinase activity, EGFR DM (L828R/T790M)
Structures can show the parent of a compound that is named as a salt.
VALUE_TYPE: IC50

>>> observed_value("C=CC(=O)Nc1cc(Nc2nccc(C(=O)c3ccc(N4CCC[C@H](OC)C4)cc3)n2)c(OC)cc1N(C)CCN(C)C")
"2.32 nM"
>>> observed_value("C=CC(=O)Nc1cc(Nc2nccc(C(=O)c3ccc(OC4CC4)cc3)n2)c(OC)cc1N(C)CCN(C)C")
"1.75 nM"
>>> observed_value("C=CC(=O)Nc1cc(Nc2nccc(C(=O)c3ccc(N4CCN(C)CC4)cc3)n2)c(OC)cc1N(C)CCN(C)C [EGFR_3365_62, formate]")
"6.58 nM"
>>> observed_value("C=CC(=O)Nc1cc(Nc2nccc(C(=O)c3ccc(N4CCC[C@@H](O)C4)cc3)n2)c(OC)cc1N(C)CCN(C)C")
"3.14 nM"
>>> observed_value("C=CC(=O)Nc1cc(Nc2nccc(C(=O)c3ccc(N(CC)CC)cc3)n2)c(OC)cc1N(C)CCN(C)C")
"3.71 nM"
>>> observed_value("C=CC(=O)Nc1cc(Nc2cc(C(=O)c3ccccc3)ccn2)c(OC)cc1N(C)CCN(C)C")
"14.5 nM"
>>> observed_value("C=CC(=O)Nc1cc(Nc2cc(C(=O)c3ccc(OCC(C)C)cc3)ccn2)c(OC)cc1N(C)CCN(C)C")
"4.97 nM"
>>> observed_value("C=CC(=O)Nc1cc(Nc2nccc(C(=O)c3ccc(OCCC)cc3)n2)c(OC)cc1N(C)CCN(C)C")
"7.69 nM"
>>> observed_value("C=CC(=O)Nc1cc(Nc2nccc(C(=O)c3cccc(OC)c3)n2)c(OC)cc1N(C)CCN(C)C")
"5.26 nM"
>>> observed_value("C=CC(=O)Nc1cc(Nc2cc(C(=O)c3ccc(OCCC)cc3)ccn2)c(OC)cc1N(C)CCN(C)C")
"3.29 nM"
>>> observed_value("C=CC(=O)Nc1cc(Nc2cc(C(=O)c3ccc(N4CC(OC)C4)cc3)ccn2)c(OC)cc1N(C)CCN(C)C (racemic)")
"7.31 nM"
>>> observed_value("C=CC(=O)Nc1cc(Nc2cc(C(=O)c3ccc(N4CCCC4)cc3)ccn2)c(OC)cc1N(C)CCN(C)C")
"6.3 nM"
>>> observed_value("C=CC(=O)Nc1cc(Nc2nccc(C(=O)c3ccc(N4CC[C@@H](OC)C4)cc3)n2)c(OC)cc1N(C)CCN(C)C")
"1.99 nM"
>>> observed_value("C=CC(=O)Nc1cc(Nc2nccc(C(=O)c3ccc(N4CCCC4)cc3OC)n2)c(OC)cc1N(C)CCN(C)C")
"2.65 nM"

###

Tested on: H1975 (lung adenocarcinoma, DM, L828R/T790M)
Assay: Antiproliferative activity on H1975 cells (Alamar Blue)
Type: cell-based
Conditions: Homo sapiens, NCI-H1975; H1975 cells, average values obtained in several tests, Table 16; read-out: H1975 (DM) IC50
pIC50: −log10 of the molar value.
Here, each record is paired with measured pIC50 data.
VALUE_TYPE: pIC50

>>> observed_value("C=CC(=O)Nc1cc(Nc2nccc(C(=O)c3ccc(OC)cc3OCCC)n2)c(OC)cc1N(C)CCN(C)C")
7.09
>>> observed_value("C=CC(=O)Nc1cc(Nc2nccc(C(=O)c3cccc(OC)c3)n2)c(OC)cc1N(C)CCN(C)C")
7.03
>>> observed_value("C=CC(=O)Nc1cc(Nc2nccc(C(=O)c3ccc(N4CC[C@@H](OC)C4)cc3)n2)c(OC)cc1N(C)CCN(C)C")
7.72

###

Here's a batch of molecules along with measured pIC50 for WT EGFR (Wild-Type EGFR) (Homo sapiens, UniProt P00533).
pIC50: −log10 of the molar value.
VALUE_TYPE: pIC50

>>> observed_value("C=CC(=O)Nc1cc(Nc2nccc(C(=O)c3ccc(OCCC)cc3OCCC)n2)c(OC)cc1N(C)CCN(C)C")
6.60
>>> observed_value("C=CC(=O)Nc1cc(Nc2nccc(C(=O)c3ccc(N4CCC[C@@H](OC)C4)cc3)n2)c(OC)cc1N(C)CCN(C)C")
6.73
>>> observed_value("C=CC(=O)Nc1cc(Nc2nccc(C(=O)c3ccccc3OC)n2)c(OC)cc1N(C)CCN(C)C")
7.12
>>> observed_value("C=CC(=O)Nc1cc(Nc2nccc(C(=O)c3ccc(OCCOC)cc3)n2)c(OC)cc1N(C)CCN(C)C")
6.88
>>> observed_value("C=CC(=O)Nc1cc(Nc2nccc(C(=O)c3ccc(N4CC[C@H](O)C4)cc3)n2)c(OC)cc1N(C)CCN(C)C.O=CO [EGFR_3365_112, formate]")
7.63
>>> observed_value("C=CC(=O)Nc1cc(Nc2nccc(C(=O)c3ccc(N(C)C)cc3)n2)c(OC)cc1N(C)CCN(C)C")
7.49
>>> observed_value("C=CC(=O)Nc1cc(Nc2nccc(C(=O)c3ccc(OCCC)cc3OC)n2)c(OC)cc1N(C)CCN(C)C")
7.53
>>> observed_value("C=CC(=O)Nc1cc(Nc2cc(C(=O)c3ccc(N4CCOCC4)cc3)ccn2)c(OC)cc1N(C)CCN(C)C.O=C(O)C(F)(F)F [EGFR_3365_5, 2,2,2-trifluoroacetate]")
6.33
>>> observed_value("C=CC(=O)Nc1cc(Nc2nccc(C(=O)c3ccc(N4CCCCC4)cc3)n2)c(OC)cc1N(C)CCN(C)C")
7.49
>>> observed_value("C=CC(=O)Nc1cc(Nc2nccc(C(=O)c3ccc(N4CCC(N(C)C)CC4)cc3)n2)c(OC)cc1N(C)CCN(C)C [EGFR_3365_121a]")
7.53
>>> observed_value("C=CC(=O)Nc1cc(Nc2nccc(C(=O)c3c(OC)cc(OC)cc3OC)n2)c(OC)cc1N(C)CCN(C)C")
7.12
>>> observed_value("C=CC(=O)Nc1cc(Nc2nccc(C(=O)c3cc4ccccc4n3C)n2)c(OC)cc1N(C)CCN(C)C")
7.59
>>> observed_value("C=CC(=O)Nc1cc(Nc2nccc(C(=O)c3ccc(F)cc3)n2)c(OC)cc1N(C)CCN(C)C")
6.67
>>> observed_value("C=CC(=O)Nc1cc(Nc2cc(C(=O)c3ccc(OCCC)cc3)ccn2)c(OC)cc1N(C)CCN(C)C")
7.49

###

Tested on: HepG2 cells
Experiment: General cytotoxicity on HepG2 cells
Assay type: cell-based
Conditions: therapeutic index, CC50 HepG2 / IC50 H1975
Here, each record is paired with measured TI, CC50/IC50 data.
VALUE_TYPE: TI, CC50/IC50

>>> observed_value("C=CC(=O)Nc1cc(Nc2nccc(C(=O)c3ccc(N4CCCC4)cc3)n2)c(OC)cc1N(C)CCN(C)C")
2239
>>> observed_value("C=CC(=O)Nc1cc(Nc2nccc(C(=O)c3cccc([N+](=O)[O-])c3)n2)c(OC)cc1N(C)CCN(C)C")
62
>>> observed_value("C=CC(=O)Nc1cc(Nc2nccc(C(=O)c3ccc(N4CCCC4)cc3OC)n2)c(OC)cc1N(C)CCN(C)C")
33959
>>> observed_value("C=CC(=O)Nc1cc(Nc2nccc(C(=O)c3ccc(OCc4ccccc4)cc3)n2)c(OC)cc1N(C)CCN(C)C")
108

###

Experiment: Chemical stability in simulated intestinal fluid (SIF)
Format: physicochemical
Settings: SIF without enzymes, pH 6.5; 10 μm; 2 hours at 37° C.; substance amount remaining
Here, each record is paired with measured Stability in SIF, % data.
VALUE_TYPE: Stability in SIF, % (%)

>>> observed_value("C=CC(=O)Nc1cc(Nc2nccc(C(=O)c3ccc(OCc4ccccc4)cc3)n2)c(OC)cc1N(C)CCN(C)C")
100.0
>>> observed_value("C=CC(=O)Nc1cc(Nc2nccc(C(=O)c3ccc(N4CCCC4)cc3)n2)c(OC)cc1N(C)CCN(C)C")
100.0
>>> observed_value("C=CC(=O)Nc1cc(Nc2nccc(C(=O)c3ccccc3C(F)(F)F)n2)c(OC)cc1N(C)CCN(C)C")
100.0
>>> observed_value("C=CC(=O)Nc1cc(Nc2cc(C(=O)c3ccc(N4CCOCC4)cc3)ccn2)c(OC)cc1N(C)CCN(C)C.O=C(O)C(F)(F)F")
89.8
